Lab note: GI50 readings collected with HCT-15 for the following molecules.
Measured metric: GI50

INSERT INTO results (molecule, measured_metric, result) VALUES
  ('Nc1ccc(-c2ncc3cc(-c4cccc(-c5cc6cnc(-c7ccc(N)cc7)nc6c6ccccc56)c4)c4ccccc4c3n2)cc1', 'GI50', '> 100 µM'),
  ('Nc1ncnc2c1nnn2C1C=CC(CP(=O)(O)O)C1 (stereo not drawn)', 'GI50', '> 100 µM'),
  ('O=C(Nc1ccc(Cl)cc1)c1cc2c(cc1Cl)SC(NNCCO)=NS2(=O)=O', 'GI50', '> 100 µM'),
  ('Cc1nc(N)c(N2CCN(C(=O)O)CC2)c(O)n1', 'GI50', '> 100 µM'),
  ('CCO/N=[N+](\[O-])N(CC)CC', 'GI50', '> 100 µM'),
  ('NC1C2(CCCCCC2)NC(=O)C12CCCCCC2 (stereo not drawn)', 'GI50', '> 100 µM'),
  ('O=S1(=O)OCCOS(=O)(=O)C1(F)Br', 'GI50', '> 100 µM'),
  ('CN(C)CCCc1cccnc1', 'GI50', '> 100 µM'),
  ('COc1cc2c[n+](C)c3c4cc(OC)c(OC)cc4c(OC)cc3c2cc1OC', 'GI50', '> 100 µM'),
  ('Cc1nc(-c2cccnc2)sc1C(=O)/C=C/c1cccc([N+](=O)[O-])c1', 'GI50', '> 100 µM'),
  ('O=C(NC1=C(Cl)C(=O)c2ccccc2C1=O)C(=O)c1c(O)c2ccccc2oc1=O', 'GI50', '3.18 µM'),
  ('O=C1/C(=C/c2ccco2)N=C2Sc3c([nH]cnc3=O)N12', 'GI50', '> 100 µM'),
  ('O=C1C(c2ccccc2)=[N+]([O-])c2cc([N+](=O)[O-])ccc21', 'GI50', '21.4 µM'),
  ('Brc1ccc2c(-c3csc(-c4c[nH]c5cc(Br)ccc45)n3)c[nH]c2c1', 'GI50', '12.4 µM'),
  ('CCCN(CCC)C(=O)Cc1c2n(c3ccccc13)Cc1ccccc1-2', 'GI50', '> 100 µM'),
  ('COc1ccc2nc3cc(Cl)ccc3c(SCC(=O)Nc3ccccc3-c3ccccc3NC(=O)CSc3c4ccc(Cl)cc4nc4ccc(OC)cc34)c2c1', 'GI50', '> 100 µM'),
  ('Cc1n[nH]c(=O)c2c3c([nH]c12)-c1ccccc1C3', 'GI50', '> 100 µM'),
  ('CCOC(=O)C[n+]1cccc(C2(c3cc4ccccc4[nH]3)OCCO2)c1', 'GI50', '> 100 µM'),
  ('CC[C@@]1(O)C[C@H](OC2CC(N(C)C)C(O)C(C)O2)c2c(O)c3c(c(O)c2[C@H]1OC1CC(N(C)C)C(O)C(C)O1)C(=O)c1cccc(O)c1C3=O (stereo partly drawn)', 'GI50', '0.0585 µM'),
  ('NS(=O)(=O)c1ccc(NC2(C(=O)O)CCCC2)cc1', 'GI50', '> 100 µM'),
  ('CCc1ccccc1NC(=O)c1cccc([N+](=O)[O-])c1O', 'GI50', '25.8 µM'),
  ('Cc1nc2c(o1)C(=O)c1ccccc1/C2=N\c1ccccc1', 'GI50', '2.25 µM'),
  ('Cc1cn([C@H]2C[C@H](N=[N+]=[N-])[C@@H](CO)O2)c(=O)[nH]c1=O', 'GI50', '> 100 µM'),
  ('CCCC(=O)Oc1cc(OC(=O)CCC)c2c(C)cc(=O)oc2c1', 'GI50', '> 100 µM'),
  ('Cn1c(=O)sc2cc(C(=S)N3CCC(Cc4ccccc4)CC3)ccc21', 'GI50', '99.5 µM'),
  ('CCCCSCc1nc2nc(Cl)c(Cl)nc2[nH]1', 'GI50', '23.4 µM'),
  ('C[N+]1=c2c3cccc4cccc(c(=O)n2CCC1)c43', 'GI50', '35.6 µM'),
  ('Cc1nc(N)nc(N)c1CCCCc1ccccc1', 'GI50', '5.97 µM'),
  ('COC(=O)CP1(=O)OC2C(C3CCC2(C)C3(C)C)N1c1cc(C(F)(F)F)cc(C(F)(F)F)c1 (stereo not drawn)', 'GI50', '24.4 µM'),
  ('COc1cc2c(cc1OC)C(N)CC2=O (stereo not drawn)', 'GI50', '> 100 µM'),
  ('CC(NC1=CC(=O)c2cccnc2C1=O)C(O)c1ccccc1 (stereo not drawn)', 'GI50', '1.37 µM'),
  ('N#Cc1nc(-c2ccccc2C(=O)O)oc1N', 'GI50', '> 100 µM'),
  ('COC(=O)CCCC(=O)/C(=N\Nc1ccc(Cl)cc1)Nc1c(Cl)cccc1Cl', 'GI50', '72.3 µM');

----------
Tested on: UACC-257
Method description: NCI tumour cell line growth inhibition, 48 h
The source made the active and inactive calls. Rule as the data show it: active = GI50 up to about 1.1 µM and inactive = higher.
Measured metric: GI50

INSERT INTO measurements (molecule, measured_metric, result) VALUES
  ('O=C(Nc1ccc(Cl)cc1)c1cc2c(cc1Cl)SC(NNCCO)=NS2(=O)=O', 'GI50', '> 100 µM (inactive)'),
  ('COc1ccc(/C=N/NC(=O)c2ccccc2Nc2ccccc2C(=O)N/N=C/c2ccc(OC)cc2)cc1', 'GI50', '> 100 µM (inactive)'),
  ('O=C1/C(=C/c2ccco2)N=C2Sc3c([nH]cnc3=O)N12', 'GI50', '> 100 µM (inactive)'),
  ('O=C(c1ccccc1)C1OC12C(=O)Nc1c(Cl)cc(Cl)cc12 (stereo not drawn)', 'GI50', '> 100 µM (inactive)'),
  ('COc1ccc([N+]2=NC(c3ccc([N+](=O)[O-])cc3)=NN(c3ccccc3)C2)cc1', 'GI50', '30.1 µM (inactive)'),
  ('O=c1cc(NCC2CCCCC2)[nH]c(=O)[nH]1', 'GI50', '> 100 µM (inactive)'),
  ('O=c1c(Cc2ccccc2)c(-c2ccccc2)[nH]n1C1=NCCN1', 'GI50', '52.6 µM (inactive)'),
  ('COc1cc(OC)nc(-n2c(N)c(C#N)c3ccc([N+](=O)[O-])cc3c2=O)n1', 'GI50', '> 100 µM (inactive)'),
  ('Clc1ccc(C2=Cc3nc2c(-c2ccccc2)c2ccc([nH]2)c(-c2ccccc2)c2nc(c(-c4ccccc4)c4ccc([nH]4)c3-c3ccccc3)C=C2)cc1', 'GI50', '> 62.5 µM (inactive)'),
  ('C[N+]12c3ccccc3O[B-]1(c1ccccc1)Oc1ccccc12 (stereo not drawn)', 'GI50', '27.1 µM (inactive)'),
  ('CCOC(=O)C[n+]1cccc(C2(c3cc4ccccc4[nH]3)OCCO2)c1', 'GI50', '> 100 µM (inactive)'),
  ('COc1ccc(NC(C)=O)cc1N1C(=O)/C(=C\c2cccc(Oc3ccccc3)c2)SC1c1ccccc1 (stereo not drawn)', 'GI50', '40.6 µM (inactive)'),
  ('Cc1[nH]c2ccccc2c1C(=O)CC1(O)C(=O)Nc2c(Cl)cc(Cl)cc21 (stereo not drawn)', 'GI50', '17.2 µM (inactive)'),
  ('c1ccc2c(c1)ccc1nc3ccccn3c12', 'GI50', '> 100 µM (inactive)'),
  ('CN(CCN(C)Cc1ccc(Cl)c(Cl)c1)CCN1CCCC1', 'GI50', '9.16 µM (inactive)'),
  ('O=c1[nH]cnc2[nH]nnc12', 'GI50', '4.39 µM (inactive)'),
  ('CC(=O)O[C@H]1CN(S(=O)(=O)c2ccc(C)cc2)C[C@@H]1C1CCCCC1', 'GI50', '18 µM (inactive)'),
  ('NC(=O)c1c[se]c(C2OC(CO)C(O)C2O)n1 (stereo not drawn)', 'GI50', '> 100 µM (inactive)');

----------
Tested on: UO-31
Method description: NCI tumour cell line growth inhibition, 48 h
Calls of active or inactive are those of the source. Rule as the data show it: active = GI50 up to about 1.1 µM and inactive = higher.
Possible outcomes: active, inactive

INSERT INTO measurements (compound, classification) VALUES
  ('COc1c(Cl)nc2ccccc2c1N=[N+]=[N-]', 'inactive'),
  ('N#CCc1nc(-c2cc3ccccc3oc2=O)cs1', 'inactive'),
  ('O=C(CC(=O)c1ccc([N+](=O)[O-])cc1)C(=O)Nc1nccs1', 'inactive'),
  ('Cc1cccc(/N=N/c2ccc(O)c(CN(C)C)c2)c1', 'inactive'),
  ('COc1cc2cc(C(=O)N3CC(CCl)c4c3cc(NC(=O)OCc3ccc([N+](=O)[O-])cc3)c3ccccc43)[nH]c2c(OC)c1OC (configuration not stated)', 'active'),
  ('COc1cc([N+](=O)[O-])c(S(=O)(=O)O)cc1N', 'inactive'),
  ('BrC/C=C/C[P+](c1ccccc1)(c1ccccc1)c1ccccc1', 'inactive'),
  ('COC(=O)C1=C(C(=O)OC)SC(=C2SCSC3=C2SC(C(=O)OC)=C(C(=O)OC)C32SC3=C(CCCC3)S2)S1', 'inactive'),
  ('CC(C)(C)c1cc(S(=O)(=O)O)c2oc(-c3ccccc3)cc(=O)c2c1', 'inactive'),
  ('COC(=O)/C=C/c1cnc2c(c1)oc(=O)n2C', 'inactive'),
  ('C/C(=N\Nc1nc2cc(C)ccc2s1)c1ccccn1', 'active'),
  ('CCN1CCC(O)(c2ccc([N+](=O)[O-])cc2)C(C(=O)c2ccc([N+](=O)[O-])cc2)C1 (configuration not stated)', 'inactive');
